test system: COLO 205 colon; assay: NCI tumour cell line growth inhibition, 48 h; in the data active means GI50 below about 0.43 µM; inactive means the rest
Outcome codes: 1 = active, 0 = inactive

{"Compound": "COc1ccc(-c2c3c(nc4n[nH]c(-c5ccc(Cl)cc5)c24)-c2ccccc2C(=O)C3=O)cc1", "Class Assignment": 0}
{"Compound": "COc1cc(C)c2sc3ccccc3c(=O)c2c1NCCN(C)C", "Class Assignment": 0}
{"Compound": "CC1(C)Cc2c(Br)c(Br)c(Br)c(OCC(O)CN3CCN(c4ccccn4)CC3)c2O1 (stereo not given)", "Class Assignment": 0}
{"Compound": "NC(=O)c1sc(-n2cnc3cc(C(F)(F)F)ccc32)cc1OCc1ccccc1Br", "Class Assignment": 0}
{"Compound": "COc1c(N2CCN(CN3C(=O)C(=O)c4cc(Cl)ccc43)C(C)C2)c(F)cc2c(=O)c(C(=O)O)cn(C3CC3)c12 (stereo not given)", "Class Assignment": 0}
{"Compound": "Nc1nc(N)c2nc3c(nc2n1)CCCCCCCCCC3", "Class Assignment": 0}
{"Compound": "CCCCCCCCCCCCCC[n+]1ccc(C)cc1", "Class Assignment": 0}
{"Compound": "CN(C)c1ccc(/C=C/c2sc3ccccc3[n+]2C)cc1", "Class Assignment": 1}
{"Compound": "NC1(Cc2ccc(Cl)cc2)CCN(c2ncnc3[nH]ccc23)CC1", "Class Assignment": 0}
{"Compound": "CCSC[C@@H]1C[C@](O)(c2ccc(F)cc2)[C@@H](c2ccc(F)cc2)O1", "Class Assignment": 0}

====

test system: MCF7 breast; assay: NCI tumour cell line growth inhibition, 48 h

{"Molecule": "CC(=O)NC1=NC(=O)/C(=C/c2ccc(/C=C3/C(=O)N=C(NC(C)=O)N3C)cc2)N1C", "TGI": "> 100 µM"}
{"Molecule": "COc1cc(Cl)cc(-c2nn(-c3cccc(NC(=O)Nc4ccc(Cl)c(Cl)c4)c3)cc2-c2ccncc2)c1", "TGI": "13.2 µM"}
{"Molecule": "C(#CP(c1ccccc1)c1ccccc1)P(C#CP(c1ccccc1)c1ccccc1)c1ccccc1", "TGI": "> 100 µM"}
{"Molecule": "CC1(C)O[C@@H]2C[C@H]3[C@@H]4C[C@H](F)C5=CC(=O)C=C[C@]5(C)[C@@]4(F)[C@@H](O)C[C@]3(C)[C@]2(C(=O)CO)O1", "TGI": "> 100 µM"}
{"Molecule": "C=Cn1c([N+](=O)[O-])cnc1/C=C/c1ccc(C(=O)OCCN2CCOCC2)cc1", "TGI": "> 100 µM"}
{"Molecule": "C[C@]12CC(c3ccccc3O1)C(C(=O)Nc1nc(C34CC5CC(CC(C5)C3)C4)cs1)C(=O)N2 (some centres undefined)", "TGI": "> 100 µM"}
{"Molecule": "C#CC(O)/C=C/CCCCCCC#CC/C=C\\CC#CCCCCCCCCC(O)C#C (centres undefined)", "TGI": "39.5 µM"}
{"Molecule": "Cc1cc2nc3c(C#N)c4c(c(-c5ccc(Cl)cc5)n3c2cc1C)CCC4", "TGI": "> 100 µM"}
{"Molecule": "CN(CCCCCl)P(=O)(OCc1ccc([N+](=O)[O-])o1)OCC1OC(n2cnc([N+](=O)[O-])c2N)C(O)C1O (centres undefined)", "TGI": "> 100 µM"}

====

tested on: M14 melanoma; assay: NCI tumour cell line growth inhibition, 48 h
Metric Name: TGI

{"Compound": "CCCCCCCCCCCCCCCCNc1ccn(C2CC(O)C(COC(c3ccccc3)(c3ccccc3)c3ccc(OC)cc3)O2)c(=O)n1 (centres undefined)", "Measurement Target": "M14 melanoma", "Metric Name": "TGI", "Result": "> 100 µM"}
{"Compound": "CCOC(=O)Nc1cc2ccccc2c(N=Nc2ccccc2)c1O", "Measurement Target": "M14 melanoma", "Metric Name": "TGI", "Result": "> 100 µM"}
{"Compound": "Cc1ccc(S(=O)(=O)N/N=C/C(C)C)cc1", "Measurement Target": "M14 melanoma", "Metric Name": "TGI", "Result": "> 100 µM"}
{"Compound": "COc1cc(-c2c3c(cc4c2OCO4)[C@@H](Nc2ccc(-c4ccc(-c5ccc(N[C@@H]6c7cc8c(cc7C(c7cc(OC)c(O)c(OC)c7)[C@H]7C(=O)OC[C@H]67)OCO8)cc5)cc4)cc2)[C@H]2COC(=O)[C@@H]2C3)cc(OC)c1O (some centres undefined)", "Measurement Target": "M14 melanoma", "Metric Name": "TGI", "Result": "4.11 µM"}
{"Compound": "COc1ccc(NCC(=O)Nn2c(-c3ccccc3)nc3ccccc3c2=O)cc1", "Measurement Target": "M14 melanoma", "Metric Name": "TGI", "Result": "> 100 µM"}
{"Compound": "COc1cc2c(/C=C3/C(=O)Nc4ccc(Cl)cc43)c(Cl)[nH]c2cc1C", "Measurement Target": "M14 melanoma", "Metric Name": "TGI", "Result": "13.7 µM"}
{"Compound": "C[C@H](CCC1SC1(C)C)C1CCC2(C)C3=C(CC[C@]12C)[C@@]1(C)CC[C@H](O)C(C)(C)C1CC3 (some centres undefined)", "Measurement Target": "M14 melanoma", "Metric Name": "TGI", "Result": "> 100 µM"}
{"Compound": "Nc1nc(N)c2nc3c(nc2n1)CCCCCCCCCC3", "Measurement Target": "M14 melanoma", "Metric Name": "TGI", "Result": "> 100 µM"}
{"Compound": "CCOC(=O)C1(C#N)CC1", "Measurement Target": "M14 melanoma", "Metric Name": "TGI", "Result": "> 100 µM"}

====

test system: SNB-75 CNS; assay: NCI tumour cell line growth inhibition, 48 h
Listing of entries alongside the reported GI50.
Metric Name: GI50

{"Mol Smiles": "COc1ccc(CCN2CCC(CN(C)Cc3cnn(-c4ccccc4)c3)CC2)cc1", "Measurement Target": "SNB-75 CNS", "Metric Name": "GI50", "Result": "8.83 µM"}
{"Mol Smiles": "CCCCCCCCCCCCCC[n+]1ccc(C)cc1", "Measurement Target": "SNB-75 CNS", "Metric Name": "GI50", "Result": "0.806 µM"}
{"Mol Smiles": "Cc1ccc(-n2nnnc2-c2cnc(N3CCOCC3)nc2-c2cccc(C(F)(F)F)c2)cc1", "Measurement Target": "SNB-75 CNS", "Metric Name": "GI50", "Result": "1.6 µM"}
{"Mol Smiles": "COC(=O)[C@H](Cc1cn(C)cn1)NC(=O)[C@H](C)NC(=O)Nc1cc(C(F)(F)F)cc(C(F)(F)F)c1", "Measurement Target": "SNB-75 CNS", "Metric Name": "GI50", "Result": "> 10 µM"}
{"Mol Smiles": "COc1cnc2c(c1)C(=O)c1c-2n(CCCN2CCC(O)CC2)c(=O)c2cc(Cl)ccc12", "Measurement Target": "SNB-75 CNS", "Metric Name": "GI50", "Result": "10.4 µM"}

====

system: UACC-257 melanoma; assay: NCI tumour cell line growth inhibition, 48 h
Metric Name: TGI (µM)

{"Molecule": "O=C(CCCN1CCC(C(O)c2ccc(F)cc2)CC1)c1ccc(F)cc1 (stereo not given)", "Unit Info": "µM", "Limit Qualifier": "=", "Result Number": 121}
{"Molecule": "CC1(C)OC2OC(C(COS(=O)(=O)C(F)(F)F)N=[N+]=[N-])C(OC(=O)c3ccccc3)C2O1 (stereo not given)", "Unit Info": "µM", "Limit Qualifier": ">", "Result Number": 100}
{"Molecule": "COc1cc2c(/C=C3/C(=O)N(C)c4ccc(O)cc43)c(Cl)[nH]c2cc1C", "Unit Info": "µM", "Limit Qualifier": "=", "Result Number": 23.5}
{"Molecule": "CC1SC2(CCCCC2)N(NC(=O)c2[nH]c3ccc(Br)cc3c2-c2ccccc2)C1=O (stereo not given)", "Unit Info": "µM", "Limit Qualifier": ">", "Result Number": 100}
{"Molecule": "CN(CCc1ccccn1)C(=S)N/N=C(\\c1ccccc1)c1ccccn1", "Unit Info": "µM", "Limit Qualifier": "=", "Result Number": 1.94}

====

Recorded measurements of TGI, one per entry
test system: ACHN renal; test: NCI tumour cell line growth inhibition, 48 h

{"Molecule": "C=C(C(=C)P(=S)(C(C)C)C(C)C)P(=S)(C(C)C)C(C)C", "Measurement Target": "ACHN renal", "TGI": "> 100 µM"}
{"Molecule": "Cc1cc(O)c(C2=NN(c3ccc(S(N)(=O)=O)cc3)C(/C=C/c3ccccc3)C2)cc1Cl (stereo unspecified)", "Measurement Target": "ACHN renal", "TGI": "21.9 µM"}
{"Molecule": "O=C(SCc1cccc2ccccc12)c1ccc(Cl)cc1", "Measurement Target": "ACHN renal", "TGI": "> 100 µM"}
{"Molecule": "OC1COC2CC(Nc3ccccn3)OC12 (stereo unspecified)", "Measurement Target": "ACHN renal", "TGI": "> 100 µM"}
{"Molecule": "COc1cc2c(cc1OC)C(=O)/C(=C/c1cc(C)cc(C)c1)C2", "Measurement Target": "ACHN renal", "TGI": "> 100 µM"}
{"Molecule": "CC(C)(C)OC(=O)NCc1cccc(N=C=S)c1", "Measurement Target": "ACHN renal", "TGI": "67.6 µM"}
{"Molecule": "C#CC(O)/C=C/CCCCCCC#CC/C=C\\CC#CCCCCCCCCC(O)C#C (stereo unspecified)", "Measurement Target": "ACHN renal", "TGI": "29.5 µM"}
{"Molecule": "CCN1C(=NCCO)NS(=O)(=O)c2ccccc21", "Measurement Target": "ACHN renal", "TGI": "> 100 µM"}
{"Molecule": "C#CCN(Cc1ccc2nc(-c3ccccc3)c(N)nc2c1)c1cc(OC)c(OC)c(OC)c1", "Measurement Target": "ACHN renal", "TGI": "80.7 µM"}
{"Molecule": "NC(=O)NC1C(C(=O)O)N(Cc2ccccc2)C(=O)N1Cc1ccccc1 (stereo unspecified)", "Measurement Target": "ACHN renal", "TGI": "> 100 µM"}
{"Molecule": "CC(C)c1ccccc1SCc1cc(=O)cc(CSc2ccccc2C(C)C)o1", "Measurement Target": "ACHN renal", "TGI": "> 100 µM"}

Source of measurements: PubChem BioAssay (NCI)
